Numbers sourced from PubChem BioAssay (NCI).

TGI values for the molecules below.
test system: DLD-1 colon; assay: NCI tumour cell line growth inhibition, 48 h

molecule: COC1/C(=C\C(C)=O)c2ccccc2N1C(C)=O (stereo not drawn)
TGI: > 100 µM
//
molecule: CCN(CC)c1ccc(C2N3CCCCC3[C@@H]3c4[nH]c5ccccc5c4CCN23)cc1 (stereo partly drawn)
TGI: > 100 µM
//
molecule: COc1ccc(C2=Nc3ccccc3N=C(SC)C2)cc1
TGI: > 100 µM

---

TGI values for the compounds below.
system: IGROV1 ovarian; assay: NCI tumour cell line growth inhibition, 48 h

compound: C=C(C)C(=O)Nc1ccc(-c2c(-c3ccc(Oc4nccc(C)n4)c(F)c3)c3c(N)ncnc3n2C)cc1
tested.system: IGROV1 ovarian
TGI: 17.4 µM

compound: CC12O[C@H](C[C@@H](OC(=O)CCC(=O)O)[C@H]1O)n1c3ccccc3c3c4c(c5c6ccccc6n2c5c31)C(=O)NC4=O
tested.system: IGROV1 ovarian
TGI: 38.8 µM

compound: O=c1[nH]cnc2c1cnn2Cc1cnnn1COCCO
tested.system: IGROV1 ovarian
TGI: > 100 µM

compound: CNC(=O)CNC(=O)N(C[C@@H]1CCCN1C(=O)[C@H](CC(C)C)NC(=O)OC(C)(C)C)C(C)C
tested.system: IGROV1 ovarian
TGI: > 100 µM

compound: CC(NNC(=O)c1ccncc1)c1cccc(C(F)(F)F)c1 (stereo unspecified)
tested.system: IGROV1 ovarian
TGI: > 100 µM

compound: CCOC(=O)c1cc(C)nc2c1c(=O)n(-c1ccccc1)c(=O)n2CCCCN1CCN(c2ncccn2)CC1
tested.system: IGROV1 ovarian
TGI: > 100 µM
